# Tested on: PC-3 prostate
# assay-procedure: NCI tumour cell line growth inhibition, 48 h; in the data active = GI50 below about 0.43 µM; inactive = the rest
Hi! Could you answer with just one of these? class 1 (active), class 0 (inactive)

Entry `Cc1cc(S(=O)(=O)N/N=C(\Sc2cc(Cl)c(C)cc2S(N)(=O)=O)c2ccc(Cl)cc2)c(Cl)cc1Cl` : call = ?
class 0

Entry `COc1ccc(-c2oc3cc(O)c(OC)c(O)c3c(=O)c2OC)cc1O` : call = ?
class 0

Entry `CC(=O)/C=C/c1ccc(C#Cc2ccccc2)s1` : call = ?
class 0

Entry `O=C(Nc1ccc(Br)cc1)c1ccc(Cl)c(Cl)c1` : call = ?
class 0

Entry `COCCOc1cnc2ccn([C@H](C)c3nnc4c(F)cc(-c5cnn(C)c5)cn34)c(=O)c2c1` : call = ?
class 0

Entry `COc1ccc(Nc2c3ccccc3nc3occ(Cl)c23)cc1` : call = ?
class 1

Entry `N#C/C(=C/N1CCN(C(=O)c2ccco2)C1=S)C(=O)c1ccccc1` : call = ?
class 0

Entry `COc1ccc(-c2ccc(/C=N/n3c(C)n[nH]c3=S)o2)c([N+](=O)[O-])c1` : call = ?
class 0

Entry `COc1ccc(C(=O)COc2cccc(/C=C3\Oc4ccc5ccccc5c4C3=O)c2)cc1` : call = ?
class 0

Entry `O=C(COc1ccc(/C=C2\CSc3ccccc3C2=O)cc1)Nc1nccs1` : call = ?
class 0

Measured values drawn from PubChem BioAssay (NCI) for this set.
